The measurements presented in this section are drawn from the supplement of paper PMC11061612.

Below, each entry is listed alongside its reported Bliss excess.
test system: H-EMC-SS (Chondrosarcoma); assay: Bliss excess, mean over the matrix (fraction); higher = more synergy;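 further: after 72 h of two-drug dosing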
Could you respond with only the numeric value?

Sample answers from the record:
Input: Please supply the value of reported Bliss excess for the item Cc1cc2ncnn2cc1Nc1ncc2c(n1)n(C1CCOCC1)c(=O)n2C [AZD7648] + CN(C)CCCOc1ccc(-c2ccc3ncc4c(c3c2)n(C2CCOCC2)c(=O)n4C)cn1 [AZD0156] (first compound max 10 µM, 7x7, partner max 1 µM)
Output: -0.0396

Input: Please supply the value of reported Bliss excess for the item C[C@@H](Nc1cc(F)cc(F)c1)c1cc(C(=O)N(C)C)cc2c(=O)cc(N3CCOCC3)oc12 [AZD8186] + CC(=O)c1c(C)c2cnc(Nc3ccc(N4CCNCC4)cn3)nc2n(C2CCCC2)c1=O [Palbociclib] (first compound max 10 µM, 7x7, partner max 10 µM)
Output: -0.0127

Input: Please supply the value of reported Bliss excess for the item C[C@@H]1COCCN1c1cc(C2([S@](C)(=N)=O)CC2)nc(-c2ccnc3[nH]ccc23)n1 [AZD6738] + Nc1ccn([C@@H]2O[C@H](CO)[C@@H](O)C2(F)F)c(=O)n1 [Gemcitabine] (first compound max 10 µM, 7x7, partner max 0.3 µM)
Output: 0.006

Input: Please supply the value of reported Bliss excess for the item Cn1cnc2c(F)c(Nc3ccc(Br)cc3Cl)c(C(=O)NOCCO)cc21 [Selumetinib] + C[C@@H]1COCCN1C2=NC(=NC(=C2)C3(CC3)[S@](=N)(=O)C)C4=C5C=CNC5=NC=C4 [AZD6738] (first compound max 10 µM, 7x7, partner max 10 µM)
Output: -0.0405

Input: Please supply the value of reported Bliss excess for the item Cc1cc2ncnn2cc1Nc1ncc2c(n1)n(C1CCOCC1)c(=O)n2C [AZD7648] + C[C@@H]1COCCN1C2=NC(=NC(=C2)C3(CC3)[S@](=N)(=O)C)C4=C5C=CNC5=NC=C4 [AZD6738] (first compound max 10 µM, 7x7, partner max 10 µM)
Output: 0.0095

---
Input: Please supply the value of reported Bliss excess for the item Cc1c2c(nn1C)CSCc1cc(n(C)n1)CSc1cc(c3ccccc3c1)OCCCc1c(C(=O)O)n(C)c3c-2c(Cl)ccc13 [AZD5991] + CC1(C)CCC(CN2CCN(c3ccc(C(=O)NS(=O)(=O)c4ccc(NCC5CCOCC5)c([N+](=O)[O-])c4)c(Oc4cnc5[nH]ccc5c4)c3)CC2)=C(c2ccc(Cl)cc2)C1 [Venetoclax] (first compound max 1 µM, 7x7, partner max 1 µM)
Output: 0.0646

Input: Please supply the value of reported Bliss excess for the item Cn1cnc2c(F)c(Nc3ccc(Br)cc3Cl)c(C(=O)NOCCO)cc21 [Selumetinib] + C=CCn1c(=O)c2cnc(Nc3ccc(N4CCN(C)CC4)cc3)nc2n1-c1cccc(C(C)(C)O)n1 [AZD1775] (first compound max 10 µM, partner max 1 µM)
Output: -0.07

* * *

tested on: HC-1 (Other Blood Carcinomas); test: combination Emax (second highest fraction inhibited in the dose matrix, 72 h); higher = more inhibition; extreme values may be limits of the assay
REPORTED_METRIC: combination Emax
Could you respond with only the numeric value?

Input: Please supply the value of reported combination Emax for the item CC(=O)c1c(C)c2cnc(Nc3ccc(N4CCNCC4)cn3)nc2n(C2CCCC2)c1=O [Palbociclib] + CC1(C)CCC(CN2CCN(c3ccc(C(=O)NS(=O)(=O)c4ccc(NCC5CCOCC5)c([N+](=O)[O-])c4)c(Oc4cnc5[nH]ccc5c4)c3)CC2)=C(c2ccc(Cl)cc2)C1 [Venetoclax] (first compound max 10 µM, 7x7, partner max 1 µM)
Output: 0.611

// next entry
Input: Please supply the value of reported combination Emax for the item CCc1c2c(nc3ccc(O)cc13)-c1cc3c(c(=O)n1C2)COC(=O)[C@]3(O)CC [SN-38] + CN(C)CCCOc1ccc(-c2ccc3ncc4c(c3c2)n(C2CCOCC2)c(=O)n4C)cn1 [AZD0156] (first compound max 0.3 µM, 7x7, partner max 1 µM)
Output: 1
